These measurements were taken from patent US20140178332A1.

measured.target: T1, recombinant purified cyno IL-12 p70 (cynomolgus monkey)
T1 chain 1: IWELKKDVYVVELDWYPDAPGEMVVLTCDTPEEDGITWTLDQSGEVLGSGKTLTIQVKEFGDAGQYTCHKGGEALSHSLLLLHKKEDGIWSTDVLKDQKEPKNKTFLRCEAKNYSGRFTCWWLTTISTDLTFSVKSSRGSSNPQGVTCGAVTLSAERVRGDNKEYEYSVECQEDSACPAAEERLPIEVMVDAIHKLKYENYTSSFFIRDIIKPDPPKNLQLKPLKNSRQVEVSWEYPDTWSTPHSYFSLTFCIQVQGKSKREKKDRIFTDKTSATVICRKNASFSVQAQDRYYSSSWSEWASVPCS
T1 chain 2: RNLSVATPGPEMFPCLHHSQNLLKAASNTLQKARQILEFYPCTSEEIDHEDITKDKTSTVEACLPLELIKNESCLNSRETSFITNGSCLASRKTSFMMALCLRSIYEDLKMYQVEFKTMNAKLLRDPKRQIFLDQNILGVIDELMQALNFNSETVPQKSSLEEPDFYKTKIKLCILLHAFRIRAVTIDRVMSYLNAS
experiment: cell-based or functional assay
quantity.kind: Average IC50 (nM) Cyno IL-12, PHA blast IFN-γ assay
Numbers only, in nM.

Can you share its Average IC50 (nM) Cyno IL-12, PHA blast IFN-γ assay? I mean this binder: chimeric anti-human IL-12p40 antibody 3G7-Chim (antibody, human IgG1, kappa, L234A L235A, V domains shown) VH: QVQLQQSGAELMKPGASVKISCKATGYTFNDYWIEWVKQRPGHGLEWIGGFSHGSGSTNYNEKFKGKATFTADSSSNTAYMQLSSLTSEDSAVYYCARRRFRGMDYWGQGTSVTVSS VL: SIVMTQTPKFLLVSAGDRVTITCKASQSVSNDVAWYQQKPGQSPKLLIYYASNRYTGVPDRFTGSGYGTDFTFTITTVQAEDLAVYFCQQDYSSPWSFGGGTKLEIKR
0.32
